- PROCEDURE TEXT: Pharmacokinetic experiment in mouse
- STUDY CONDITIONS: plasma, iv, 10 mg/kg
METRIC NAME: AUC(0-inf) (ng·h/mL)
Hi! Could you send only the number? It should be in ng·h/mL, unit omitted.

Solved entries (count: 3):
| COMPOUND | MEASUREMENT UNITS | ENDPOINT VALUE |
| --- | --- | --- |
| O=C(OCC1CCNCC1)N1CCC(F)(CN[C@@H]2C[C@H]2c2ccccc2)CC1 (relative stereo) [Example A43] | ng·h/mL | 890 |
| N[C@H]1CC[C@](F)(CNC2CC2c2ccccc2)CC1 (stereo partly shown) [Example A4] | ng·h/mL | 1100 |
| FC1(CN[C@@H]2C[C@H]2c2ccccc2)CCNCC1 (relative stereo) [Example A2] | ng·h/mL | 1380 |

Item: O=C(OCC1CCNCC1)N1CCC(F)(CN[C@@H]2C[C@H]2c2ccccc2)CC1 [(1R,2S)-A43] | AUC(0-inf): 1710

----------
- PROCEDURE TEXT: Pharmacokinetic experiment in mouse
- STUDY CONDITIONS: plasma, po
METRIC NAME: Cmax (ng/mL)
Hi! Could you send only the number? It should be in ng/mL, unit omitted.

Solved entries (count: 4):
| COMPOUND | MEASUREMENT UNITS | Cmax |
| --- | --- | --- |
| O=C(OCC1CCNCC1)N1CCC(F)(CN[C@@H]2C[C@H]2c2ccccc2)CC1 (relative stereo) [Example A43] | ng/mL | 867 |
| N[C@H]1CC[C@](F)(CNC2CC2c2ccccc2)CC1 (stereo partly shown) | ng/mL | 470 |
| O=C(OCC1CCN(Cc2ccccc2)CC1)N1CCC(F)(CN[C@@H]2C[C@H]2c2ccccc2)CC1 (relative stereo) [Example A90] | ng/mL | 3480 |
| O=C(OCC1CCN(Cc2ccccc2)CC1)N1CCC(F)(CN[C@@H]2C[C@H]2c2ccccc2)CC1 [(1R,2S)-A90] | ng/mL | 2950 |

Item: O=C(OCc1ccccc1)N1CCC(F)(CNC2CC2c2ccccc2)CC1 (stereo not shown) | Cmax: 7200

Item: O=C(OCC1CCNCC1)N1CCC(F)(CN[C@@H]2C[C@H]2c2ccccc2)CC1 [(1R,2S)-A43] | Cmax: 1260

Item: FC1(CN[C@@H]2C[C@H]2c2ccccc2)CCNCC1 (relative stereo) | Cmax: 544

----------
- PROCEDURE TEXT: Pharmacokinetic experiment in mouse
- STUDY CONDITIONS: plasma, iv, 10 mg/kg
METRIC NAME: clearance
Please provide the amount together with its unit, number first.

Solved entries (count: 2):
| COMPOUND | clearance |
| --- | --- |
| N[C@H]1CC[C@](F)(CNC2CC2c2ccccc2)CC1 (stereo partly drawn) | 151 mL/min/kg |
| FC1(CN[C@@H]2C[C@H]2c2ccccc2)CCNCC1 (relative stereo) | 121 mL/min/kg |

Item: O=C(OCC1CCNCC1)N1CCC(F)(CN[C@@H]2C[C@H]2c2ccccc2)CC1 [(1R,2S)-A43] | clearance: 97.4 mL/min/kg

----------
- PROCEDURE TEXT: in vivo
- STUDY CONDITIONS: mouse, iv
METRIC NAME: Cmax (ng/mL)
Hi! Could you send only the number? It should be in ng/mL, unit omitted.

Item: O=C(O)c1ccc(CN2CCC(CN[C@@H]3C[C@H]3c3ccccc3)CC2)cc1 [GSK-2879552] | Cmax: 7740
